All values here come from patent US5981520A.

# Lookup of reported Ki keyed by entry
Protein target, amino acids: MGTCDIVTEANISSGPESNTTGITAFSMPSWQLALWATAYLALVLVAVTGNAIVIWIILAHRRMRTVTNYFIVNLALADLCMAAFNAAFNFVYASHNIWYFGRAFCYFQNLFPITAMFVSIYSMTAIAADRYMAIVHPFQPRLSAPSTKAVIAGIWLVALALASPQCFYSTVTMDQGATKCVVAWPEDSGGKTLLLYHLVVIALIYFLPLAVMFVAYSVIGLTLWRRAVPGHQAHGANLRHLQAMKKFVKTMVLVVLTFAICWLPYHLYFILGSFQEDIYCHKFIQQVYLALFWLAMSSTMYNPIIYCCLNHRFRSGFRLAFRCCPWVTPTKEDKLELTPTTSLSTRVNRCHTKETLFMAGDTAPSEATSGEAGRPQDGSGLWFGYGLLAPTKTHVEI
PARAMETER MEASURED: Ki (µM)

>>> df
                                   molecule  units_label  reported_measurement
0  COc1ccc(C2CN(C(=O)c3cc(C(F)(F)F)cc(C(F)(F)F)c3)CCN2C(=O)CNC2CCN(Cc3ccccc3)CC2)cc1 (centres unmarked)           µM                 0.048
1  O=C(C1c2ccccc2Oc2ccccc21)N1CCN(C(=O)CNC2CCN(Cc3ccccc3)CC2)C(c2ccc(Cl)c(Cl)c2)C1 (centres unmarked)           µM                 0.187
